Test system: Pseudomonas fluorescens HPPD polypeptide (wild-type and mutants)
Test: Coupled HPPD activity assay: turnover and residual turnover in crude HPPD polypeptide extracts with and without Cmpd. 1
Assay type: biochemical
Conditions: absence of Cmpd. 1; changes in absorbance (OD) at 320 nm in the coupled assay, 30 min
recorded-endpoint: Turnover

[[record]]
molecule = "SEQ ID NO:10 (protein, mutant HPPD polypeptide) MADLYENPMGLMGFEFIEFASPTPGTLEPIFEIMGFTKVATHRSKNVHLYRQGEINLILNNEPNSIASYFAAEHGPSVCGMAFRVKDSQKAYNRALELGAQPIHIDTGPMELNLPAIKGIGGAPLYLIDRFGEGSSIYDIDFVYLEGVERNPVGAGLKVIDHLTHNVYRGRMVYWANFYEKLFNFREARYFDIKGEYTGLTSKAMSAPDGMIRIPLNEESSKGAGQIEEFLMQFNGEGIQHVAFLTDDLVKTWDALKKIGMRFMTAPGDEYYEMLEGRLPDHGEPVDQLQARGILLDGSSVEGDKRLLLQIFSEKLMGPVFFEFIQRKGDDGFGPDSFKVLFEQIERDQVRRGVLTAD"
quantitative_readout = 0.018

